// values below are reported EC50
system: Primary T Cell (expanded CD3+ T cells); assay: T cell enhancement of cytokines: IL2 measurement (HTRF) in stimulated expanded CD3+ T cells; format: cell-based, human; settings: Homo sapiens, T-cell, 24 h, plate-bound anti-CD3 and soluble anti-CD28, 24 h, IL2 by HTRF; read-out: IL-2 Primary T Cell EC50
Report as a plain number; the unit nM is understood.

*Q* Requested field: EC50. Item: CCS(=O)(=O)[C@H]1C[C@@H](Oc2ncc(C(C)(C)N)c3cc(Nc4ccc5c(n4)[C@@H](C)[C@H](C)OC5=O)ncc23)C1
*A* 11

---

Target or system MAP4K1 (HPK1) (Homo sapiens); recorded quantity IC50.
Respond numerically; units are nM and should not be typed.

Record excerpt, results attached:
compound | unitSpec | observed
COC[C@@](C)(N)c1cnc(O[C@H]2C[C@@H](S(C)(=O)=O)C2)c2cnc(Nc3ccc4c(n3)[C@@H](C)C(C)(C)OC4=O)cc12 [Compound 123] | nM | 0.16
CC[C@@](C)(N)c1cnc(O[C@H](C)C[C@@H](C)[S@@](C)(=N)=O)c2cnc(Nc3ccc4c(n3)C3(CC3)[C@@H](C)OC4=O)cc12 (single isomer, unassigned) [Compound 180] | nM | 3.03
CC[C@@](C)(N)c1cnc(O[C@H]2C[C@@H](S(C)(=O)=O)C2)c2cnc(Nc3ccc4c(n3)[C@@H](C)[C@H](C)OC4=O)cc12 [Compound 38] | nM | 0.12
C[C@@H]1[C@H](S(C)(=O)=O)C[C@H]1Oc1ncc(C(C)(C)N)c2cc(Nc3ccc4c(n3)[C@@H](C)C(C)(C)OC4=O)ncc12 (single isomer, unassigned) [Compound 70] | nM | 0.23

*Q* Name the reported IC50 value associated with the compound C[C@H](C[C@@H](C)S(C)(=O)=O)Oc1ncc([C@H](N)C2CC2)c2cc(Nc3ccc4c(n3)[C@@H](C)C(C)(C)OC4=O)ncc12 (single isomer, unassigned) [Compound 110]
*A* 0.22

---

// MAP4K1 (HPK1) (Homo sapiens) IC50 records
Remember to quote the unit after the number.

compound | measuredOn | observed
CC[C@@](C)(N)c1cnc(O[C@H](C)CCS(C)(=O)=O)c2cnc(Nc3ccc4c(n3)C(C)(C)[C@H](C)OC4=O)cc12 (single isomer, unassigned) | MAP4K1 (HPK1) (Homo sapiens) | 0.77 nM
CC[C@@](C)(N)c1cnc(O[C@H](C)C[C@@H](C)[S@](C)(=N)=O)c2cnc(Nc3ccc4c(n3)C3(CC3)[C@@H](C)OC4=O)cc12 (single isomer, unassigned) | MAP4K1 (HPK1) (Homo sapiens) | 0.18 nM
CC[C@@](C)(N)c1cnc(O[C@H]2C[C@H](CS(C)(=O)=O)C2)c2cnc(Nc3ccc4c(n3)[C@@H](C)[C@H](C)OC4=O)cc12 | MAP4K1 (HPK1) (Homo sapiens) | 0.1 nM

*Q* GET /values?readout=IC50&system=MAP4K1 (HPK1) (Homo sapiens)&item= CC[C@@](C)(N)c1cnc(O[C@H]2C[C@@H](CS(C)(=O)=O)C2)c2cnc(Nc3ccc4c(n3)[C@@H](C)[C@H](C)OC4=O)cc12
*A* 0.24 nM

*Q* Please provide the recorded IC50 for CCS(=O)(=O)CC[C@@H](C)Oc1ncc(C(C)(C)N)c2cc(Nc3ccc4c(n3)[C@@H](C)C(C)(C)OC4=O)ncc12 (single isomer, unassigned) [Compound 99] , tested on MAP4K1 (HPK1) (Homo sapiens).
Sequence (Q92918 whole entry): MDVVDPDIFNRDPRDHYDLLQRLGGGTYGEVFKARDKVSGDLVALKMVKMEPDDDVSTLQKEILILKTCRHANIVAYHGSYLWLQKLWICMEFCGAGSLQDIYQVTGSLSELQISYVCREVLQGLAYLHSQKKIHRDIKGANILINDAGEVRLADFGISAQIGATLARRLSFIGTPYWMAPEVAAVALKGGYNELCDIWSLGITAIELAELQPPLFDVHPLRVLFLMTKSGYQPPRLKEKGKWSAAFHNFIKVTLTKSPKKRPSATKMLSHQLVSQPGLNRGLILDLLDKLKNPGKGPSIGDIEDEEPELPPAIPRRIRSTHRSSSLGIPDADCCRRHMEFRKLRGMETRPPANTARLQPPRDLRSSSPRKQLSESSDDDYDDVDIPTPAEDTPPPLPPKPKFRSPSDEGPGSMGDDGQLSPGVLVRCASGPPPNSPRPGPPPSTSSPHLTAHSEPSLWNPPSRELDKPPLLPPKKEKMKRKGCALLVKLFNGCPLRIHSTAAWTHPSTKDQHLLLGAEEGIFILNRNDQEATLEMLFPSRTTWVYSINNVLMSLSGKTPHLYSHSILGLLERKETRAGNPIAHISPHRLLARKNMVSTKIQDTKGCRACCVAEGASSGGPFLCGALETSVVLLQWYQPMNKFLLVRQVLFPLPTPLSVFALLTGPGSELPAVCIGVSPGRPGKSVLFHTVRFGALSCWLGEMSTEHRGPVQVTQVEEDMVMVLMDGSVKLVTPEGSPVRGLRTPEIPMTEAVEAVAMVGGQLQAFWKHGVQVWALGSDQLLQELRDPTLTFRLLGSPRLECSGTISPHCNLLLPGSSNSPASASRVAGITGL
*A* 0.39 nM

*Q* // lookup IC50 | system=MAP4K1 (HPK1) (Homo sapiens) | key= CC(C)(N)c1cnc(O[C@H]2C[C@@H](S(C)(=O)=O)C2)c2cnc(Nc3ccc4c(n3)C(C)(C)OC4=O)cc12
*A* 1.85 nM

*Q* Request - read-out IC50 | tested on MAP4K1 (HPK1) (Homo sapiens) | compound COC[C@@](C)(N)c1cnc(O[C@H]2C[C@@H](S(C)(=O)=O)C2)c2cnc(Nc3ccc4c(n3)C3(CC3)[C@H](C)OC4=O)cc12 (single isomer, unassigned)
*A* 0.22 nM

*Q* Provide the documented IC50 with MAP4K1 (HPK1) (Homo sapiens) as the system for C[C@@H]1OC(=O)c2cc(Nc3cncc4c(OCCCS(C)(=O)=O)ncc(C(C)(C)N)c34)cnc2[C@H]1C
*A* 0.28 nM

*Q* Record lookup: for MAP4K1 (HPK1) (Homo sapiens), what IC50 belongs to COC[C@@](C)(N)c1cnc(O[C@H](C)C[C@@H](C)S(C)(=O)=O)c2cnc(Nc3ccc4c(n3)C3(CC3)[C@H](C)OC4=O)cc12 (single isomer, unassigned) ?
*A* 1.15 nM

*Q* Requested read-out IC50, target or system MAP4K1 (HPK1) (Homo sapiens), entry C[C@H](C[C@@H](C)S(C)(=O)=O)Oc1ncc([C@@](C)(N)C2CC2)c2cc(Nc3ccc4c(n3)[C@@H](C)[C@H](C)OC4=O)ncc12 (single isomer, unassigned)
*A* 0.15 nM

*Q* What is its IC50 for MAP4K1 (HPK1) (Homo sapiens)? Entry: CC[C@@](C)(N)c1cnc(O[C@@H](C)CC(C)(C)S(C)(=O)=O)c2cnc(Nc3ccc4c(n3)[C@@H](C)[C@H](C)OC4=O)cc12 (single isomer, unassigned) [Compound 184]
*A* 0.83 nM

---

biological target: UniProt Q92918
reportedEndpoint: log10 of IC50 (log10 of the value in nM)
# log10 transformed; quantity=IC50; unit=nM

Below, each entry is followed by its recorded log10 of IC50 result.
molecule | measuredOn | reportedEndpoint | observed
CC[C@@](C)(N)c1cnc(O[C@@H](C)CC(C)(C)S(C)(=O)=O)c2cnc(Nc3ccc4c(n3)[C@@H](C)[C@H](C)OC4=O)cc12 (single isomer, unassigned) [Compound 185] | UniProt Q92918 | log10 of IC50 | -0.66
C[C@@H]1[C@H](S(C)(=O)=O)C[C@H]1Oc1ncc(C(C)(C)N)c2cc(Nc3ccc4c(n3)[C@@H](C)C(C)(C)OC4=O)ncc12 (single isomer, unassigned) [Compound 71] | UniProt Q92918 | log10 of IC50 | -0.55
CC[C@@](C)(N)c1cnc(O[C@@H](C)CCS(C)(=O)=O)c2cnc(Nc3ccc4c(n3)C(C)(C)[C@H](C)OC4=O)cc12 (single isomer, unassigned) | UniProt Q92918 | log10 of IC50 | 0.32
C[C@H](C[C@@H](C)S(C)(=O)=O)Oc1ncc(C(C)(C)N)c2cc(Nc3ccc4c(n3)[C@@H](C)[C@H](C)OC4=O)ncc12 | UniProt Q92918 | log10 of IC50 | -0.82

// moving on: another record for log10 of IC50
*Q* Kindly state the measured log10 of IC50 obtained for C[C@@H]1c2nc(Nc3cc4c(C(C)(C)N)cnc(O[C@H]5C[C@@H](CS(C)(=O)=O)C5)c4cn3)ccc2C(=O)OC1(C)C (single isomer, unassigned) with UniProt Q92918.
*A* -1.15

---

system: Primary T Cell (expanded CD3+ T cells); assay: T cell enhancement of cytokines: IL2 measurement (HTRF) in stimulated expanded CD3+ T cells; type: cell-based, human; conditions: Homo sapiens, T-cell, 24 h, plate-bound anti-CD3 and soluble anti-CD28, 24 h, IL2 by HTRF; read-out: IL-2 Primary T Cell EC50
pEC50 by entry:
Would you please state pEC50, meaning minus log10 of the concentration in mol/L, as a bare number?

compound | pEC50
CC[C@@](C)(N)c1cnc(O[C@H](C)C[C@@H](C)S(C)(=O)=O)c2cnc(Nc3ccc4c(n3)[C@H](C)COC4=O)cc12 (single isomer, unassigned) | 7.28
CC[C@@](C)(N)c1cnc(O[C@H](C)CCS(=O)(=O)CC)c2cnc(Nc3ccc4c(n3)[C@@H](C)[C@H](C)OC4=O)cc12 (single isomer, unassigned) | 7.82
CCS(=O)(=O)[C@H]1C[C@@H](Oc2ncc([C@](C)(N)COC)c3cc(Nc4ccc5c(n4)[C@@H](C)[C@H](C)OC5=O)ncc23)C1 | 7.57
CC[C@@](C)(N)c1cnc(O[C@@H](C)CCS(C)(=O)=O)c2cnc(Nc3ccc4c(n3)[C@@H](C)C(C)(C)OC4=O)cc12 | 7.28
COC[C@@](C)(N)c1cnc(O[C@H]2C[C@@H](CS(C)(=O)=O)C2)c2cnc(Nc3ccc4c(n3)[C@@H](C)C(C)(C)OC4=O)cc12 | 7.48

*Q* Primary T Cell (expanded CD3+ T cells) / pEC50 / CC[C@@](C)(N)c1cnc(O[C@H]2C[C@@H](S(C)(=O)=O)C2)c2cnc(Nc3ccc4c(n3)[C@@H](C)[C@H](C)OC4=O)cc12 : value?
*A* 8.30

*Q* Report pEC50 for CCC[C@@](C)(N)c1cnc(O[C@H](C)CCS(C)(=O)=O)c2cnc(Nc3ccc4c(n3)[C@@H](C)C(C)(C)OC4=O)cc12 (single isomer, unassigned) tested on Primary T Cell (expanded CD3+ T cells).
*A* 7.68

*Q* Can you look up pEC50 on Primary T Cell (expanded CD3+ T cells) for CCS(=O)(=O)CC[C@@H](C)Oc1ncc(C(C)(C)N)c2cc(Nc3ccc4c(n3)[C@@H](C)C(C)(C)OC4=O)ncc12 (single isomer, unassigned) ?
*A* 7.17

*Q* Entry CC[C@@](C)(N)c1cnc(O[C@@H]2C[C@H](S(C)(=O)=O)[C@H]2C)c2cnc(Nc3ccc4c(n3)[C@@H](C)[C@H](C)OC4=O)cc12 (single isomer, unassigned) , system Primary T Cell (expanded CD3+ T cells): what pEC50 was measured?
*A* 7.85

*Q* Write down the reported pEC50 of CC[C@@](C)(N)c1cnc(O[C@H](C)C[C@@H](C)S(C)(=O)=O)c2cnc(Nc3ccc4c(n3)C(C)(C)COC4=O)cc12 , test system: Primary T Cell (expanded CD3+ T cells).
*A* 7.64

*Q* Lab note: need pEC50 for CCS(=O)(=O)[C@H]1C[C@@H](Oc2ncc(C(C)(C)N)c3cc(Nc4ccc5c(n4)[C@@H](C)C(C)(C)OC5=O)ncc23)C1 on Primary T Cell (expanded CD3+ T cells), anyone have it?
*A* 8.05
